system: A549 cells; test: in vitro antiproliferation assay, A549 (lung); assay type: cell-based; conditions: A549 (lung) cells, antiproliferation
pIC50: −log10 of the molar value.
Measurement Name: pIC50

// below: answered compounds
INSERT INTO assay_data (compound, observed_value) VALUES
  ('Cc1cc(Nc2nc(Nc3cccc(OCC(=O)N4CCOCC4)c3)ncc2F)cc(C)c1O [compound 948]', '< 4.70'),
  ('OCCOc1cccc(Nc2ncc(F)c(Nc3ccc(CO)c(CO)c3)n2)c1 [compound 967]', '< 4.70'),
  ('COc1cc(Nc2nc(Nc3ccc(C(N)=O)cc3)ncc2F)ccc1Cl [compound 1032]', '< 4.70');

Continue with the compound presented below.
Q: Answer with the recorded pIC50 for the compound listed here: COc1ccc(Nc2nc(Nc3cc(-c4ncco4)cc(C(F)(F)F)c3)ncc2F)cc1OC [compound 889]
A: ≥ 4.70

====

system: PC3; assay: in vitro antiproliferation assay, PC3 (prostate); format: cell-based
Measurement Name: IC50

See these solved cases before continuing.
INSERT INTO measurements (structure_smiles_string, tgt, observed_value) VALUES
  ('CNC(=O)COc1cccc(Nc2ncc(F)c(Nc3ccc(OC)c(OC)c3)n2)c1', 'PC3', '> 20 µM'),
  ('COc1c(C)cc(Nc2nc(Nc3cccc(OCC(=O)N4CCNCC4)c3)ncc2F)cc1C', 'PC3', '> 20 µM'),
  ('CC(C)c1ccc(Nc2ncc(F)c(Nc3cccc(O)c3)n2)cc1', 'PC3', '> 20 µM'),
  ('COC(=O)COc1cccc(Nc2ncc(F)c(Nc3cc(C)c(OC)c(C)c3)n2)c1', 'PC3', '> 20 µM'),
  ('COC(=O)COc1cccc(Nc2ncc(F)c(Nc3cc(C)c(O)c(C)c3)n2)c1', 'PC3', '> 20 µM'),
  ('CNC(=O)COc1cccc(Nc2ncc(F)c(Nc3ccc(C(C)(C)C)cc3)n2)c1', 'PC3', '> 20 µM'),
  ('Oc1ccc(Nc2ncc(F)c(Nc3ccc(O)c(F)c3)n2)cc1F', 'PC3', '≤ 20 µM');

Q: Report IC50, nothing else, for this molecule: CCOC(=O)COc1cccc(Nc2ncc(F)c(Nc3cc(C)c(O)c(C)c3)n2)c1
A: ≤ 20 µM

====

Overview of recorded pIC50 for various compounds
tested on: MDA MB231; assay: in vitro antiproliferation assay, MDA MB231 (breast/ER negative); type: cell-based; details: MDA-MB-231, seeding density 4K; read-out: MDA-MB-231(4K)
pIC50: −log10 of the molar value.

Please review the entries below; each comes with its answer.
INSERT INTO measurements (compound, observed_value) VALUES
  ('COC(=O)N1CCN(c2ccc(Nc3ncc(F)c(NC4CCC4)n3)cc2)CC1 [compound 107]', '≥ 4.70'),
  ('COc1ccc(Nc2nc(Nc3cccc(-c4ncco4)c3)ncc2F)cc1OC [compound 858]', '≥ 4.70');

Q: Report pIC50 for CN1CCN(c2ccc(Nc3ncc(F)c(N(C)C4CCC4)n3)cc2)CC1 [compound 125]
A: ≥ 4.70

====

test system: A549 cells; assay: in vitro antiproliferation assay, A549 (lung); assay type: cell-based; details: Table 5; in vitro antiproliferation, A549 (lung) cells
pIC50: −log10 of the molar value.
Measurement Name: pIC50

Recorded pIC50, per entry:
INSERT INTO results (structure_smiles_string, measurement_name, observed_value) VALUES
  ('Cc1cc(Nc2ncc(F)c(Nc3ccc4c(c3)OC(F)(F)C(F)(F)O4)n2)cc(C)c1Cl', 'pIC50', '< 4.70'),
  ('CNC(=O)COc1ccc(Nc2ncc(F)c(Nc3ccc4c(c3)OCCO4)n2)cc1', 'pIC50', '< 4.70'),
  ('CN(c1ccc2c(c1)OC(F)(F)C(F)(F)O2)c1nc(Nc2cccc(-c3ncco3)c2)ncc1F', 'pIC50', '≥ 4.70'),
  ('CNC(=O)c1ccc(Nc2ncc(F)c(Nc3ccc4c(c3)OCCO4)n2)cc1Cl', 'pIC50', '≥ 4.70'),
  ('COc1cc(Nc2ncc(F)c(Nc3ccc4c(c3)OC(F)(F)O4)n2)cc(OC)c1OC', 'pIC50', '≥ 4.70');

// below: pIC50 requested for another molecule
Q: Give the value of pIC50 reported for the following: OCCOc1cccc(Nc2ncc(F)c(Nc3ccc4c(c3)OCCO4)n2)c1
A: ≥ 4.70

====

Below, each entry is listed with its recorded IC50.
tested on: MCF-7; experiment: in vitro antiproliferation assay, MCF-7 (breast/ER positive); assay type: cell-based; conditions: MCF7, seeding density 4K; read-out: MCF7(4K)

Reference set, count: 2
INSERT INTO assay_data (structure_smiles_string, observed_value) VALUES
  ('CN1CCN(c2ccc(Nc3ncc(F)c(N(C)C4CCC4)n3)cc2)CC1', '≤ 20 µM'),
  ('COC(=O)N1CCN(c2ccc(Nc3ncc(F)c(NC4CCC4)n3)cc2)CC1', '≤ 20 µM');

# evaluate next
Q: Look up IC50 of COc1ccc(Nc2nc(Nc3cccc(-c4ncco4)c3)ncc2F)cc1OC and report it.
A: ≤ 20 µM

====

system: A549 cells; assay: in vitro antiproliferation assay, A549 (lung); format: cell-based; conditions: A549 (lung) cells, antiproliferation
Catalogue of IC50 readings, one per entry.

Q: Consider the molecule COc1ccc(Nc2ncc(F)c(Nc3ccc(OCCCN4CCOCC4)c(C)c3)n2)cc1OC and give its recorded IC50.
A: ≤ 20 µM

Q: Tell me measured IC50 for COc1ccc(N(C)c2nc(Nc3cc(C)c(OC)c(Cl)c3)ncc2F)cc1Cl please.
A: > 20 µM

Q: Given the molecule COC(=O)c1cc(Nc2ncc(F)c(Nc3cc(C(=O)OC)cc(-c4ncco4)c3)n2)cc(-c2ncco2)c1 , write its reported IC50.
A: > 20 µM

Q: Input COc1ccc(Nc2nc(Nc3cccc(C(C)(C)C)c3)ncc2F)cc1OC , output reported IC50.
A: > 20 µM

Q: Recall and state the measured IC50 for CNC(=O)c1ccc(Nc2ncc(F)c(N(C)c3cc(C)c(Cl)c(C)c3)n2)cc1Cl .
A: ≤ 20 µM

Q: Fill in reported IC50 for this entry: CC(C)c1ccc(Nc2nc(Nc3cccc(OCCO)c3)ncc2F)cc1
A: > 20 µM

Q: Give the value of IC50 reported for the following: COCCOc1cccc(Nc2ncc(F)c(Nc3cc(O)c(O)c(OCCOC)c3)n2)c1
A: ≤ 20 µM

Q: For the molecule CCOC(=O)COc1cccc(Nc2ncc(F)c(Nc3cccc(C(C)(C)C)c3)n2)c1 , give its measured IC50 value.
A: > 20 µM

Q: Return IC50 (reported value) for this molecule: CNC(=O)COc1cccc(Nc2ncc(F)c(Nc3cccc(CN)c3)n2)c1
A: ≤ 20 µM

Q: Consider the molecule O=C(O)COc1cccc(Nc2ncc(F)c(Nc3cccc(O)c3)n2)c1 and give its recorded IC50.
A: > 20 µM

Q: Entry Cc1cc(C)cc(Nc2nc(Nc3cc(Cl)cc(Cl)c3)ncc2F)c1 needs its IC50 filled in; supply it.
A: > 20 µM

====

system: H1299 cells; assay: in vitro antiproliferation assay, H1299 (lung); type: cell-based; details: H1299 (lung) cells, in vitro antiproliferation
pIC50: −log10 of the molar value.
Listed here are molecules together with their documented pIC50.

INSERT INTO measurements (structure_smiles_string, observed_value) VALUES
  ('CCOc1ccc(Nc2nc(Nc3cccc(OCC(=O)NC)c3)ncc2F)cc1', '≥ 4.70'),
  ('CCOC(=O)COc1cccc(Nc2nc(Nc3cccc(O)c3)ncc2F)c1', '≥ 4.70'),
  ('COc1cc(Nc2nc(Nc3cc(C)c(Cl)c(C)c3)ncc2F)cc(C(F)(F)F)c1', '≥ 4.70'),
  ('COc1cc(Nc2nc(Nc3ccc(N4CCN(C(C)=O)CC4)cc3)ncc2F)cc(OC)c1', '≥ 4.70'),
  ('Cc1cc(C)cc(Nc2ncc(F)c(Nc3ccc(Cl)c(Cl)c3)n2)c1', '< 4.70'),
  ('CCOc1ccc(Nc2ncc(F)c(Nc3ccc(OCC)cc3)n2)cc1', '≥ 4.70'),
  ('COc1cc(Nc2nc(Nc3cc(C)cc(C(F)(F)F)c3)ncc2F)cc(C(F)(F)F)c1', '≥ 4.70'),
  ('Fc1ccc(Nc2ncc(F)c(Nc3ccc(F)cc3)n2)cc1', '< 4.70');

Q: Give the value of pIC50 reported for the following: COc1ccc(Nc2ncc(F)c(Nc3ccc(OC)cc3)n2)cc1
A: ≥ 4.70

Q: # return recorded pIC50 for entry COc1ccc(Nc2nc(Nc3cc(C)c(OC)c(Cl)c3)ncc2F)cc1Cl
A: < 4.70

Q: Give reported pIC50 value for COc1cc(Nc2ncc(F)c(Nc3cc(C)cc(C)c3)n2)cc(C(F)(F)F)c1
A: ≥ 4.70
